Below, each entry is listed alongside its reported Kd.
MEASUREMENT_TARGET: T1, PUF4 RNA-binding domain (Saccharomyces cerevisiae, UniProt P25339 537-888)
T1 sequence: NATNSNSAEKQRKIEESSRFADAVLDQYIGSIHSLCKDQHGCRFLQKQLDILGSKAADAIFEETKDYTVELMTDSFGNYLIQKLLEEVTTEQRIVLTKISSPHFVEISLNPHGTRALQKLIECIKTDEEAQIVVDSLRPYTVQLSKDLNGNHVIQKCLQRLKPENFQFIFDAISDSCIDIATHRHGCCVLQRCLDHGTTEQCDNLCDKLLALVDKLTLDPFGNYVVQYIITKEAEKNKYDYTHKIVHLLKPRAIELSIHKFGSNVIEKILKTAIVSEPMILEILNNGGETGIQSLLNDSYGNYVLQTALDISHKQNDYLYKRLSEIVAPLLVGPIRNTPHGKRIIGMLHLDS
PROCEDURE_DETAILS: Mg; RNA-MaP; 20 mM Na-HEPES pH 7.4, 30 mM KOAc, 0.75 mM MgCl2, 0.1% Tween-20, 5% glycerol, 0.1 mg/mL BSA, 2 mM DTT; 25 C; 0.0125-409.6 nM protein
CONDITIONS_USED: tags: N-His6-TEV cleaved; C-SNAP kept, Cy3B-labelled; label: tethered on chip by stalled RNA polymerase
MEASURED_ENDPOINT: Kd (nM)

* Id_ii_S2_P3E.3_K3.2_C3.2_[C-2T]_H3.2_A3.1_F3.1_T3.2_[T9A] (ssRNA) RNA: UUUGAUUAAUAUGAUAUCGUUCUUUCUUUUAUAUAUAAAUUCUUUCUCGAUAUCAUAUUAAUCUUU | 925
* Ic_S2_P4E.1_K4.1_C4.1_H4.1_A4.1_[A6G]_F4.1_[T8G]_[A9G]_T4.1 (ssRNA) RNA: UUUGAUUAAUAUGAUAUCGUUCUUUCUUGUAUGUGGUUCUUUCUCGAUAUCAUAUUAAUCUUU | 215
* UCUCUUUGUAUGAUAUCUCUU (ssRNA) [Ib_S1_P4E.1_K4.1_C4.1_H4.1_A4.1_[A6G]_[T7A]_F4.1_T4.1] | 4.57
* ACAAACGAUAUAUAUUAACACAAAC (ssRNA) [Id_ii_S3_P4E.3_K4.2_C4.2_[C-2G]_[T-1A]_H4.2_A4.1_F4.1_T4.2_[G10A]_[T11C]] | 52.9
* UCUCUUUGUAUAACAUCUCUU (ssRNA) [Ib_S1_P4E.1_K4.1_C4.1_H4.1_A4.1_[T7A]_F4.1_[T8C]_T4.1] | 11.8
* UCUCUUUUUGUAUAUUAUAUCUCUU (ssRNA) [Id_ii_S1_P4E.2_K4.1_C4.2_[C-2T]_H4.1_A4.1_F4.1_T4.2_[G10T]_[T11A]] | 1.24
* UCUCUUGCUAUAUAUUACGUCUCUU (ssRNA) [Id_ii_S1_P4E.3_K4.2_C4.2_[C-2G]_[T-1C]_H4.2_A4.1_F4.1_T4.2_[G10C]_[T11G]] | 56.3
* Ic_S2_P4E.1_K4.1_C4.1_H4.1_A4.1_[A6C]_[T7C]_F4.1_T4.1 (ssRNA) RNA: UUUGAUUAAUAUGAUAUCGUUCUUUCUUGUAUCCUAUUCUUUCUCGAUAUCAUAUUAAUCUUU | 1.76
* Ic_S2_P4E.1_K4.1_C4.1_H4.1_A4.1_[T5G]_[A6C]_[T7A]_F4.1_[A9G]_T4.1 (ssRNA) RNA: UUUGAUUAAUAUGAUAUCGUUCUUUCUUGUAGCAUGUUCUUUCUCGAUAUCAUAUUAAUCUUU | 27.6
